These entries and their values trace back to PubChem BioAssay (NCI).

- System: MCF7 breast
- experimental_protocol: NCI tumour cell line growth inhibition, 48 h
Answer each item with its documented TGI.

INSERT INTO results (compound, readout_label, result) VALUES
  ('COc1ccc(C2NC(N)=C(C#N)C3=C2C(C)CCC3)cc1OC (configuration not stated)', 'TGI', '> 100 µM'),
  ('CSc1c(C)n([O-])c2cc(Cl)c(Cl)cc2[n+]1=O', 'TGI', '45 µM'),
  ('CCCCCCCCCCOc1ccc(N=Nc2nnc(-c3ccc(OCCCCC)cc3)s2)cc1', 'TGI', '> 100 µM'),
  ('C=C(Cl)CN1c2ccccc2C=Cc2ccccc21', 'TGI', '50.4 µM'),
  ('CC(C)(CO)CNc1cc(Cl)nc(N)n1', 'TGI', '> 100 µM'),
  ('Nc1ccc(C(=O)O)cc1', 'TGI', '> 100 µM'),
  ('CCCCOc1ccc(S(=O)(=O)/N=C(\NO)Nc2ccc(Cl)cc2)cc1', 'TGI', '28.8 µM'),
  ('O=C1CC2OCC=C3CN4CCC5(C(=O)O)C(N1)C2C3CC45 (configuration not stated)', 'TGI', '> 100 µM'),
  ('OCC(S)CS.[Bi] (configuration not stated)', 'TGI', '> 100 µM'),
  ('CCCC(=O)OC(OC(=O)CCC)c1ccc([N+](=O)[O-])o1', 'TGI', '35.4 µM');

Parameters: items (list). Returns: TGI for each item.
1. COc1ccc2c(c1)C=CC1C2CC[C@]2(C)C(NC(=O)/C=C/c3ccc(O)c(O)c3)CCC12 (some centres not stated)
2. CCOc1ccccc1N=Cc1c2ccccc2cc2ccccc12
3. Cc1ccc(S(=O)(=O)NC(=O)NC(CC(=O)O)C(=O)O)cc1 (configuration not stated)
4. COc1cc2nc(-c3cccs3)nc(N3C(c4cc(OC)c(OC)c(OC)c4)=NNC(=O)c4ccccc43)c2cc1OC
5. CS(=O)(=O)CCNCc1ccoc1-c1ccc2ncnc(Nc3ccc(OCc4ccccc4)cc3)c2c1
6. COC(=O)[C@@H](C)C[C@H](Cc1ccccc1)NC(=O)c1csc([C@@H](C[C@H](C(C)C)N(C)C(=O)[C@@H](NC(=O)[C@H]2CCCCN2C)C(C(F)(F)F)C(F)(F)F)OC(C)=O)n1

Output:
1: 20.8 µM; 2: > 79.8 µM; 3: > 100 µM; 4: > 100 µM; 5: > 25 µM; 6: > 16.7 µM

Give TGI for each listed item.
1. COc1ccc(/N=N/C(=NNC(=O)c2ccc(C)cc2)c2ccc(N(C)C)cc2)cc1
2. CSc1nc2ccc(C)cc2cc1/C=C1/C=C(c2ccccc2)NC1=O
3. O=C(O)C1CSC2(CCCN(Cc3ccccc3)C2)N1 (configuration not stated)
4. c1ccc(OCc2nnc(CCCCCCCCc3nnc(COc4ccccc4)o3)o2)cc1

Output:
["56.1 µM", "> 100 µM", "> 100 µM", "> 100 µM"]

Please supply TGI for each of the following items, keeping them in order.
1. COc1ccc(S(=O)(=O)Nc2cc(Sc3cccc4cccnc34)c(O)c3ccccc23)cc1
2. CC(C)(C)OC(=O)NNCC(O)COc1ccccc1 (configuration not stated)

Output:
1: 2.77 µM; 2: > 100 µM

----------
So I've got a bunch of compounds here, and I need their TGI values.
- Tested on: DLD-1 colon
- experimental_protocol: NCI tumour cell line growth inhibition, 48 h

Below are worked cases with known answers.
INSERT INTO results (compound, result) VALUES
  ('CC/C(C)=C1\CCC(CN(C)C)C1=O (stereo not given)', '30.5 µM'),
  ('COc1cc(CCc2ccncc2)cc(OC)c1OC', '> 100 µM'),
  ('Cc1cc(OCC(O)CO)ccc1Cl (stereo not given)', '> 100 µM'),
  ('O=C(N/C(=C\c1ccc(F)cc1)c1nc2ccccc2[nH]1)c1ccccc1', '> 100 µM'),
  ('CCN1CCC(O)(/C=C/c2ccccc2)C(C(=O)/C=C/c2ccccc2)C1 (stereo not given)', '8.22 µM'),
  ('CC1=C2C3OC(=O)C(C)C3C(O)C[C@@]2(C)C(=O)CC1 (stereo not given in full)', '> 100 µM'),
  ('COc1cc([C@@H]2c3cc4c(cc3[C@@H](NCc3cccc(F)c3)C3COC(=O)[C@@H]32)OCO4)cc(OC)c1O (stereo not given in full)', '> 65 µM'),
  ('COC(=O)C(/C(=N\O)C(=O)Nc1ccc(Br)cc1)c1nc2ccccc2[nH]c1=O (stereo not given)', '> 100 µM');

For each of the compounds below, state TGI.
1. COC(=O)C(=O)C(C#N)c1c(Cl)cccc1Cl (stereo not given)
2. CN1C/C(=C\c2ccc(C(=O)O)cc2)C(=O)/C(=C/c2ccc(C(=O)O)cc2)C1
3. Cc1c(Cl)cccc1NC(=O)C(=O)c1c(O)c2ccc(O)cc2oc1=O
4. Cc1ccc([N+]2=NC(c3ccccc3)=NN(c3ccccc3)C2)cc1

Output:
1: > 100 µM; 2: > 100 µM; 3: > 100 µM; 4: > 100 µM

Please go through the list and note TGI for each compound.
1. O=C1C(=Cc2ccc(F)cc2)C(=O)c2ccccc21
2. NC(=O)c1nc(-c2ccc(Cl)c(Cl)c2)nc2ccccc12
3. C=CCO[C@H]1CC[C@@]2(C)C(CC[C@]3(C)C2CC=C2[C@@H]4[C@@H](C)C(C)CC[C@]4(C(=O)O)CCC23C)C1(C)C (stereo not given in full)

Output:
1: > 100 µM; 2: > 100 µM; 3: 32.1 µM

Report TGI for every entry below.
1. CC1=C(C(=O)NCc2ccccc2)C(c2ccco2)C(C(=O)NCc2ccccc2)=C(C)N1
2. Nc1ncc2c(n1)-c1ccccc1OC2
3. O=S(=O)(O)c1cc(N=[N+]([O-])c2ccc(N=Nc3ccccc3)cc2S(=O)(=O)O)ccc1/C=C/c1ccc(N=[N+]([O-])c2ccc(N=Nc3ccccc3)cc2S(=O)(=O)O)cc1S(=O)(=O)O
4. COC1CC(n2cc(F)c(N)nc2=O)OC1CO (stereo not given)
5. O=[N+]([O-])c1ccc(Nc2cccc3c2[nH]c2c(-c4ccccc4)nccc23)c([N+](=O)[O-])c1

Output:
> 100 µM
> 100 µM
> 100 µM
> 100 µM
> 100 µM

----------
The following compounds have recorded GI50 on U251 CNS.

Consider the reported GI50 for these compounds:
INSERT INTO assay_data (smiles_data, readout_label, result) VALUES
  ('Cn1cc(-c2csc(-c3cn(C(=O)OC(C)(C)C)c4ccccc34)n2)c2cccnc21', 'GI50', '4.23 µM'),
  ('Cc1c2ccccc2c(C)n2c1nc1cc(Cl)c(Cl)cc12', 'GI50', '34.6 µM');

For every item below, please supply its GI50.
1. Cc1cn2cc(-c3ccc4c(c3)CC(=O)N4)nc2s1
2. CC(=O)/C(=C/N1CCN(C(=O)c2ccco2)C1=S)C(=O)c1ccccc1
3. O=S(=O)(Nc1ccc(Cl)c(Cl)c1)c1ccc(-c2cnc(C3CC3)o2)cc1

Output:
1: > 100 µM; 2: 13.4 µM; 3: 0.607 µM

----------
Give TGI for every item shown.
- System: MOLT-4 leukemia
- experimental_protocol: NCI tumour cell line growth inhibition, 48 h

For every item in the list below, what is its measured TGI?
1. CCOC(=O)C1CCCN1C(=O)c1ccccc1Cl (centres undefined)
2. CC1=NN(c2nc(N)nc(-c3cc4ccccc4oc3=N)n2)C(C)(C)C1
3. CC[C@@H](C(=O)[C@@H](C)[C@@H](O)[C@H](C)[C@@H]1O[C@@H]([C@@H](CC)C(=O)O)CC[C@@H]1C)[C@H]1O[C@]2(C=C[C@@H](O)[C@]3(CC[C@@](C)([C@H]4CC[C@](O)(CC)[C@H](C)O4)O3)O2)[C@H](C)C[C@@H]1C
4. N#C/C(=C1\OC(N)=C(c2ccc(Cl)cc2)C1=O)c1ccc(Cl)cc1
5. CCN(CC)C(=O)c1cc([N+](=O)[O-])c(=O)n2c1[nH]c1ccccc12

Output:
["> 100 µM", "34.6 µM", "5.17 µM", "50.9 µM", "> 100 µM"]

Give me TGI for each of these compounds, listed below.
1. NC(=S)NS(=O)(=O)c1ccc(Cl)cc1
2. CC1/C(=N/O)CC(c2ccccc2)N(N=O)C1c1ccccc1 (centres undefined)
3. N#CNC1=NCCC(=O)N1CCc1c[nH]c2ccccc12
4. N#Cc1c(N2CCCC2)nsc1Nc1ccccc1

Output:
1: > 100 µM; 2: > 100 µM; 3: > 100 µM; 4: > 100 µM

----------
Please respond with reported GI50 for every item in the list.
- System: MDA-MB-231 breast
- experimental_protocol: NCI tumour cell line growth inhibition, 48 h

INSERT INTO measurements (smiles_data, result) VALUES
  ('C[C@@H](C[C@H](CCO)c1ccccc1)c1ccc2ccccc2c1', '1.6 µM');

For each entry beneath this line, provide reported GI50.
1. COC(=O)c1cc(C)[nH]c2c(C)cc3nc4ccccc4c3c12
2. CCOC(=O)N(O)c1ccc(/C=C/c2ccccc2)cc1
3. Cc1nc2sc(C(=O)Nc3ccccc3)c(N)c2cc1C(=O)c1ccccc1
4. Cn1cccc1-c1cc(-c2ccccc2)nc(N)c1C#N
5. CNC(=O)c1cc(-c2ccc(F)cc2)cc(-c2ccc(S(=O)(=O)N3CCCC3)cc2)c1N
6. COC(=O)[C@@H](C)C[C@H](Cc1ccccc1)NC(=O)c1csc([C@@H](C[C@H](C(C)C)N(C)C(=O)[C@@H](NC(=O)[C@H]2CCCCN2C)C(C(F)(F)F)C(F)(F)F)OC(C)=O)n1
7. Cc1cn2cc(-c3ccc4c(c3)CC(=O)N4)nc2s1

Output:
1: 2.44 µM; 2: 9.39 µM; 3: 3.04 µM; 4: > 82 µM; 5: > 20.8 µM; 6: 0.0734 µM; 7: > 100 µM

For C[C@@H]1Cc2c(ccc3[nH]ncc23)[C@@H](c2ccc(NC3CN(CCCF)C3)cn2)N1CC(F)(F)F the molecule record lists GI50 as 17 µM
